target_under_test: Prostaglandin G/H synthase 2 (Bos taurus, UniProt O62698)
Sequence (O62698 whole entry): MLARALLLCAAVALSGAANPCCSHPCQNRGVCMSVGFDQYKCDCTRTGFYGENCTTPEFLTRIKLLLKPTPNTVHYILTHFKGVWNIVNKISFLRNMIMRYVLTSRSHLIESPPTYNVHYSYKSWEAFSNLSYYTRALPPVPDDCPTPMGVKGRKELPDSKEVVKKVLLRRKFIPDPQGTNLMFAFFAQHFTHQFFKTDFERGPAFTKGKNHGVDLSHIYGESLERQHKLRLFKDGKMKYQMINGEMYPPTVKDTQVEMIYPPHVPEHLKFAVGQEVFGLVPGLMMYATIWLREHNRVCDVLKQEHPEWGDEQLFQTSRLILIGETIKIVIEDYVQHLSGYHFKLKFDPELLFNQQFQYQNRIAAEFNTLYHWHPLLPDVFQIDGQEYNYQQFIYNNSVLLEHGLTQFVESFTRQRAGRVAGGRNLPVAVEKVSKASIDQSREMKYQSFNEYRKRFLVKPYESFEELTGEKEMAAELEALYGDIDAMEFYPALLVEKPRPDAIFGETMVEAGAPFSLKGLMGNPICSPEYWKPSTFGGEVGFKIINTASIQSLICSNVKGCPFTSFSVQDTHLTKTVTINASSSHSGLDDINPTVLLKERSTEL
value_kind: IC50

> print(dat)
                         chemical.structure  value.kind  readout.value
1  Cc1cc(-c2ccc(F)cc2)c(-c2ccc(S(C)(=O)=O)cc2)c(=O)o1        IC50         125 µM
2  CC(C)COc1cc(-c2ccccc2)c(-c2ccc(S(C)(=O)=O)cc2)c(=O)o1        IC50         1.8 µM
3  CC(C)c1cc(-c2ccc(F)cc2)c(-c2ccc(S(C)(=O)=O)cc2)c(=O)o1        IC50        13.6 µM
4  CC(C)(C)Oc1cc(-c2ccccc2)c(-c2ccc(S(C)(=O)=O)cc2)c(=O)o1        IC50         2.7 µM
5  CC(C)Oc1cc(-c2ccc(F)cc2)c(-c2ccc(S(C)(=O)=O)cc2)c(=O)o1        IC50        83.6 µM
6  CC(C)(C)Oc1cc(-c2ccc(F)cc2)c(-c2ccc(S(C)(=O)=O)cc2)c(=O)o1        IC50        20.4 µM
7  CS(=O)(=O)c1ccc(-c2c(-c3ccc(F)cc3)cc(OCc3ccc(Cl)cc3)oc2=O)cc1        IC50        53.3 µM
8  CCCSc1cc(-c2ccccc2)c(-c2ccc(S(C)(=O)=O)cc2)c(=O)o1        IC50       > 100 µM

These entries and their values trace back to ChEMBL document CHEMBL1145886.
